measurementDescription: self-splicing fitness, log relative to wild type (ln ratio); higher = more splicing; Tetrahymena group I intron in knt gene, E. coli kanamycin selection, DiMSum; sequences stand for … in CUCUCU…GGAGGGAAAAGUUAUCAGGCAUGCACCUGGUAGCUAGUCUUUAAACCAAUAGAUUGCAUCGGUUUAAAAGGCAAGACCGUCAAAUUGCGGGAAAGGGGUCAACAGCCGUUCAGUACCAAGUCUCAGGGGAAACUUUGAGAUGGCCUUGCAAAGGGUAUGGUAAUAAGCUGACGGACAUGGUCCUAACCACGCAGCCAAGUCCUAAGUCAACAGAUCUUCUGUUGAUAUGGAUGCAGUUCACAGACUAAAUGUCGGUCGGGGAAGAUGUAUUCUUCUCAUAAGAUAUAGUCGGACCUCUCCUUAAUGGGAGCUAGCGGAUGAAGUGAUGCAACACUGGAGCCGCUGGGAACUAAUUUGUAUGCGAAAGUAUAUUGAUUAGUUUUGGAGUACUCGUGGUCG;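 further: selection with 25 µg/mL kanamycin versus none on LB agar overnight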
details: 30 °C
Decide using self-splicing fitness (ln): a value greater than or equal to -3 is true (1), a smaller one is false (0).

Query :: Quick check: does UAGCAGCAAUAUUACGCCGG have self-splicing fitness (ln) greater than or equal to -3?
Result :: true (1)

Query :: Quick check: does AAGUAGCAAUAUUACGAUAG have self-splicing fitness (ln) greater than or equal to -3?
Result :: true (1)

Query :: Quick check: does AAUCAGCAAUAUUACGCGUC have self-splicing fitness (ln) greater than or equal to -3?
Result :: true (1)

Query :: Quick check: does GGGGAGCAAUAUUACGACAG have self-splicing fitness (ln) greater than or equal to -3?
Result :: false (0)

Query :: Quick check: does CUGAAGCAAUAUUACGCUUA have self-splicing fitness (ln) greater than or equal to -3?
Result :: false (0)

Query :: Quick check: does UCAAAGCAAUAUUACGACGG have self-splicing fitness (ln) greater than or equal to -3?
Result :: true (1)

Query :: Quick check: does AGGAAGCAAUAUUACGUGCU have self-splicing fitness (ln) greater than or equal to -3?
Result :: true (1)

Query :: Quick check: does AAUUAGCAAUAUUACGUCUC have self-splicing fitness (ln) greater than or equal to -3?
Result :: true (1)

Query :: Quick check: does CAGUAGCAAUAUUACGUUAA have self-splicing fitness (ln) greater than or equal to -3?
Result :: true (1)

Query :: Quick check: does GUGCAGCAAUAUUACGGUGC have self-splicing fitness (ln) greater than or equal to -3?
Result :: true (1)

Query :: Quick check: does AUAAAGCAAUAUUACGCGGU have self-splicing fitness (ln) greater than or equal to -3?
Result :: true (1)

Query :: Quick check: does AAUGAGCAAUAUUACGUUCU have self-splicing fitness (ln) greater than or equal to -3?
Result :: true (1)

Query :: Quick check: does CGCCAGCAAUAUUACGCGUG have self-splicing fitness (ln) greater than or equal to -3?
Result :: true (1)

Query :: Quick check: does AGGGAGCAAUAUUACGGCUU have self-splicing fitness (ln) greater than or equal to -3?
Result :: false (0)

Query :: Quick check: does UUGCAGCAAUAUUACGGGAG have self-splicing fitness (ln) greater than or equal to -3?
Result :: true (1)

Query :: Quick check: does UUAGAGCAAUAUUACGUUAU have self-splicing fitness (ln) greater than or equal to -3?
Result :: false (0)

Query :: Quick check: does UGGCAGCAAUAUUACGUAAU have self-splicing fitness (ln) greater than or equal to -3?
Result :: true (1)

Query :: Quick check: does CUGAAGCAAUAUUACGUUAG have self-splicing fitness (ln) greater than or equal to -3?
Result :: true (1)

Query :: Quick check: does GUAGAGCAAUAUUACGAGUC have self-splicing fitness (ln) greater than or equal to -3?
Result :: true (1)

Query :: Quick check: does GGUAAGCAAUAUUACGUUGG have self-splicing fitness (ln) greater than or equal to -3?
Result :: true (1)

Query :: Quick check: does CAAGAGCAAUAUUACGUGAA have self-splicing fitness (ln) greater than or equal to -3?
Result :: false (0)

Query :: Quick check: does UAAAAGCAAUAUUACGUAUU have self-splicing fitness (ln) greater than or equal to -3?
Result :: true (1)

Query :: Quick check: does AUAGAGCAAUAUUACGUUUG have self-splicing fitness (ln) greater than or equal to -3?
Result :: true (1)

Query :: Quick check: does AGGAAGCAAUAUUACGUGGU have self-splicing fitness (ln) greater than or equal to -3?
Result :: false (0)

Query :: Quick check: does CUUAAGCAAUAUUACGACGG have self-splicing fitness (ln) greater than or equal to -3?
Result :: true (1)

Query :: Quick check: does AUCGAGCAAUAUUACGAGAU have self-splicing fitness (ln) greater than or equal to -3?
Result :: true (1)

Query :: Quick check: does CUUAAGCAAUAUUACGGCAG have self-splicing fitness (ln) greater than or equal to -3?
Result :: true (1)

Query :: Quick check: does UACGAGCAAUAUUACGCGUC have self-splicing fitness (ln) greater than or equal to -3?
Result :: true (1)

Query :: Quick check: does AUUGAGCAAUAUUACGAGAA have self-splicing fitness (ln) greater than or equal to -3?
Result :: true (1)

Query :: Quick check: does UAAAAGCAAUAUUACGUCUG have self-splicing fitness (ln) greater than or equal to -3?
Result :: true (1)

Query :: Quick check: does GAUUAGCAAUAUUACGUUGA have self-splicing fitness (ln) greater than or equal to -3?
Result :: true (1)
